# target-under-test: Epidermal growth factor receptor [1-763,'FHEA',764-1210] (UniProt P00533)
# Construct: 1-763,'FHEA',764-1210
# assay-details: Inhibitory Activity of Compounds Against EGFR Mutant Enzyme
pIC50: −log10 of the molar value.
recorded-endpoint: pIC50

Completed entries (count: 6):
Retrieve pIC50 on Epidermal growth factor receptor [1-763,'FHEA',764-1210] (UniProt P00533); query Cc1ccc(S(=O)(=O)Nc2ccccc2Nc2nc(Cl)ncc2C)cc1
> 9.00

Retrieve pIC50 on Epidermal growth factor receptor [1-763,'FHEA',764-1210] (UniProt P00533); query O=S1(=O)CCCCN1c1ccccc1Nc1nc(Cl)ncc1Cl
> 9.00

Retrieve pIC50 on Epidermal growth factor receptor [1-763,'FHEA',764-1210] (UniProt P00533); query CCS(=O)(=O)N(C)c1ccccc1Nc1nc(Cl)ncc1Cl
9.00

Retrieve pIC50 on Epidermal growth factor receptor [1-763,'FHEA',764-1210] (UniProt P00533); query C=CC(=O)Nc1cc(N)c(OC)cc1N(C)CCN1CCCC1
> 9.00

Retrieve pIC50 on Epidermal growth factor receptor [1-763,'FHEA',764-1210] (UniProt P00533); query Cc1ccc(Nc2nc(Cl)ncc2Cl)c(NS(C)(=O)=O)c1C
> 9.00

Retrieve pIC50 on Epidermal growth factor receptor [1-763,'FHEA',764-1210] (UniProt P00533); query CCN(c1c(C)cccc1Nc1nc(Cl)ncc1Cl)S(C)(=O)=O
8.00

***
Retrieve pIC50 on Epidermal growth factor receptor [1-763,'FHEA',764-1210] (UniProt P00533); query CC(=O)Nc1c(C)cccc1Nc1nc(Cl)ncc1Cl
7.11

Retrieve pIC50 on Epidermal growth factor receptor [1-763,'FHEA',764-1210] (UniProt P00533); query CN(c1c(Nc2nc(Cl)ncc2Cl)ccc2nccnc12)S(C)(=O)=O
> 9.00

###

# target-under-test: Epidermal growth factor receptor [1-763,'FHEA',764-1210] (UniProt P00533)
# Construct: 1-763,'FHEA',764-1210
# assay-details: Inhibitory Activity of Compounds Against EGFR Mutant Enzyme
Reported values of pIC50 for individual entries
Lab note — pIC50 values are minus log10 of concentrations in M.

Completed entries (count: 3):
Tell me measured pIC50 for CC(=O)Nc1c(Nc2nc(Cl)ncc2Cl)ccc(C)c1C [US20240343694, Example 87] please.
7.62

Tell me measured pIC50 for CC(=O)N(C)c1c([N+](=O)[O-])ccc(C)c1C [US20240343694, Example 84] please.
8.52

Tell me measured pIC50 for Cc1cnc(Cl)nc1Nc1ccccc1NS(=O)(=O)c1ccccc1 [US20240343694, Example 28] please.
8.10

***
Tell me measured pIC50 for CCCS(=O)(=O)Nc1ccccc1Nc1nc(Cl)ncc1C [US20240343694, Example 26] please.
6.70

Tell me measured pIC50 for CC(=O)Nc1c([N+](=O)[O-])ccc(C)c1C [US20240343694, Example 83] please.
7.72

###

# target-under-test: Epidermal growth factor receptor [DEL746-750] (Homo sapiens, UniProt P00533)
# Sequence (P00533 with tags, fused parts or gaps DEL746-750 limits assumed, stated change not applied): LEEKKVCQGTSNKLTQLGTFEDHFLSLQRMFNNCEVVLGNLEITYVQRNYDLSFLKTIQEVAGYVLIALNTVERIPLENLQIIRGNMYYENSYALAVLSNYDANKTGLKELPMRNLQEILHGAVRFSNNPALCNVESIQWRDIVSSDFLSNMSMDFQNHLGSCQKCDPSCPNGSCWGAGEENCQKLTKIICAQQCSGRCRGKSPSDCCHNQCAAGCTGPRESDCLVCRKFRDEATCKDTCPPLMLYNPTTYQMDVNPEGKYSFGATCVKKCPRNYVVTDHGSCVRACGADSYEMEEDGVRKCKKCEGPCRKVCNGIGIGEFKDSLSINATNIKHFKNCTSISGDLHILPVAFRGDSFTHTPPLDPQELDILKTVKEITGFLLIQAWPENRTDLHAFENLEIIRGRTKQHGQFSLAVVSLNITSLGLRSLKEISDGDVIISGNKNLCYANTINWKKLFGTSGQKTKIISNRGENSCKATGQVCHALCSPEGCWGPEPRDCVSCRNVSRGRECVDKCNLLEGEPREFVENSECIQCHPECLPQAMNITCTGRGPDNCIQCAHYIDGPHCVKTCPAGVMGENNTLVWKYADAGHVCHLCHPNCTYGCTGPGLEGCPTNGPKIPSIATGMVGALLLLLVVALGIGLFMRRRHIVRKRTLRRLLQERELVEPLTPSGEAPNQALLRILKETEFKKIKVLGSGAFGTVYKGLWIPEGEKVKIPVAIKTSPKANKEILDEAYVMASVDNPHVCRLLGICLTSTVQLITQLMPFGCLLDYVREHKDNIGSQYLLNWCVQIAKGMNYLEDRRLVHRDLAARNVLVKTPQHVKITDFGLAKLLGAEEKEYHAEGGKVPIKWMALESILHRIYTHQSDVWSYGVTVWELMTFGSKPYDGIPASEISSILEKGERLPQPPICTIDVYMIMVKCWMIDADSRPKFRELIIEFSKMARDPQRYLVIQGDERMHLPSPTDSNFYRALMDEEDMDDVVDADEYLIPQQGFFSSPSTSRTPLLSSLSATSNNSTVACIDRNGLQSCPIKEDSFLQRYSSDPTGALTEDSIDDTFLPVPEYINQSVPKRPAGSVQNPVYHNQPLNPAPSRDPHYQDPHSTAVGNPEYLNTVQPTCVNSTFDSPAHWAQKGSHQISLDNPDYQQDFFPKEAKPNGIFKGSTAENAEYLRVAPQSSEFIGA
# assay-details: Inhibitory Activity of Compounds Against EGFR Mutant Enzyme
pIC50: −log10 of the molar value.
Reported values of pIC50 for individual entries

Completed entries (count: 2):
Tell me measured pIC50 for CCc1cccc(Nc2nc(Cl)ncc2Cl)c1NS(=O)(=O)CC [US20240343694, Example 52] please.
> 9.00

Tell me measured pIC50 for Cc1ccc(S(=O)(=O)Nc2ccccc2Nc2nc(Cl)ncc2C)cc1 [US20240343694, Example 25] please.
> 9.00

***
Tell me measured pIC50 for CCS(=O)(=O)N(C)c1ccccc1Nc1nc(Cl)ncc1Cl [US20240343694, Example 40] please.
> 9.00

Tell me measured pIC50 for CC(=O)N(C)c1c(N)ccc(C)c1C [US20240343694, Example 85] please.
7.74

Tell me measured pIC50 for CS(=O)(=O)N1CCc2cccc(Nc3nc(Cl)ncc3C#N)c21 [US20240343694, Example 70] please.
> 9.00

Tell me measured pIC50 for C=CC(=O)Nc1cc(N)c(OC)cc1N(C)CCN1CCC1 [US20240343694, Example 82] please.
> 9.00

Tell me measured pIC50 for CCN(c1ccccc1Nc1nc(Cl)ncc1Cl)S(C)(=O)=O [US20240343694, Example 41] please.
> 9.00

Tell me measured pIC50 for CCS(=O)(=O)N1CCc2cccc(Nc3nc(Cl)ncc3Cl)c21 [US20240343694, Example 66] please.
> 9.00

Tell me measured pIC50 for C=CC(=O)Nc1cc(N)c(OC)cc1N1CCC(N(C)C)CC1 [US20240343694, Example 59] please.
> 9.00

Tell me measured pIC50 for C=CC(=O)Nc1cc(N)c(OC)cc1N(C)CCN1CCCC1 [US20240343694, Example 29] please.
> 9.00

Tell me measured pIC50 for C=CC(=O)Nc1cc(N)c(OC)cc1OCCN1CCOCC1 [US20240343694, Example 80] please.
> 9.00

###

# target-under-test: Epidermal growth factor receptor [DEL746-750] (Homo sapiens, UniProt P00533, DEL746-750)
# Sequence (P00533 with tags, fused parts or gaps DEL746-750 limits assumed): as the sequence (P00533 with tags, fused parts or gaps DEL746-750 limits assumed, stated change not applied) above
# assay-details: Inhibitory Activity of Compounds Against EGFR Mutant Enzyme
recorded-endpoint: IC50

Tell me measured IC50 for CC(C)OC(=O)c1cnc(Cl)nc1Nc1cccc2c1N(S(C)(=O)=O)CC2 [US20240343694, Example 69] please.
< 1 nM

###

# target-under-test: Epidermal growth factor receptor [1-763,'FHEA',764-1210] (UniProt P00533)
# Construct: 1-763,'FHEA',764-1210
# assay-details: Inhibitory Activity of Compounds Against EGFR Mutant Enzyme
Reported values of IC50 for individual entries

Completed entries (count: 6):
Tell me measured IC50 for C=CC(=O)Nc1cc(N)c(OC)cc1N(C)CCN(C)C(=O)OCc1ccccc1 [US20240343694, Example 34] please.
1 nM

Tell me measured IC50 for CS(=O)(=O)N1CCc2cccc(Nc3nc(Cl)ncc3C(F)(F)F)c21 [US20240343694, Example 73] please.
< 1 nM

Tell me measured IC50 for CCN(c1ccccc1Nc1nc(Cl)ncc1Cl)S(=O)(=O)CC [US20240343694, Example 43] please.
< 1 nM

Tell me measured IC50 for COC(=O)c1cnc(Cl)nc1Nc1cccc2c1N(S(C)(=O)=O)CC2 [US20240343694, Example 68] please.
< 1 nM

Tell me measured IC50 for CC(C)c1cccc(Nc2nc(Cl)ncc2Cl)c1N(C)S(C)(=O)=O [US20240343694, Example 47] please.
< 1 nM

Tell me measured IC50 for C=CC(=O)Nc1cc(Nc2ncc(Cl)c(Nc3cccc4c3N(S(C)(=O)=O)CC4)n2)c(OC)cc1N(C)CCN(C)C(=O)OC(C)(C)C [US20240343694, Example 67] please.
< 1 nM

Kindly review the next molecule as well.
Tell me measured IC50 for C=CC(=O)Nc1cc(Nc2ncc(Cl)c(Nc3ccccc3NS(C)(=O)=O)n2)c(OC)cc1N(C)CCN(C(=O)OCc1ccccc1)C(C)C [US20240343694, Example 33] please.
< 1 nM

###

# target-under-test: Epidermal growth factor receptor [DEL746-750] (Homo sapiens, UniProt P00533)
# assay-details: Inhibitory Activity of Compounds Against EGFR Mutant Enzyme
pIC50: −log10 of the molar value.
Reported values of pIC50 for individual entries

Tell me measured pIC50 for C=CC(=O)Nc1cc(Nc2ncc(Cl)c(Nc3ccccc3NS(C)(=O)=O)n2)c(OC)cc1N(C)CCN(C(=O)OCc1ccccc1)C(C)C please.
> 9.00

Tell me measured pIC50 for Cc1ccc(S(=O)(=O)Nc2ccccc2Nc2nc(Cl)ncc2F)cc1 please.
> 9.00

Tell me measured pIC50 for CCCS(=O)(=O)Nc1ccccc1Nc1nc(Cl)ncc1C please.
8.40

Kindly review the next molecule as well.
Tell me measured pIC50 for CS(=O)(=O)N1CCc2cccc(Nc3nc(Cl)ncc3C(F)(F)F)c21 please.
> 9.00

###

Reported values of pIC50 for individual entries
# target-under-test: Epidermal growth factor receptor [1-763,'FHEA',764-1210] (UniProt P00533)
# Construct: 1-763,'FHEA',764-1210
# assay-details: Inhibitory Activity of Compounds Against EGFR Mutant Enzyme
pIC50: −log10 of the molar value.

Completed entries (count: 5):
Tell me measured pIC50 for CCc1cccc(Nc2nc(Cl)ncc2Cl)c1NS(=O)(=O)CC please.
> 9.00

Tell me measured pIC50 for COc1cc(N2CCOCC2)c(N)cc1Nc1ncc(Cl)c(Nc2ccccc2NS(C)(=O)=O)n1 please.
9.00

Tell me measured pIC50 for C=CC(=O)Nc1cc(N)c(OC)cc1N1CCC(N2CCN(C)CC2)CC1 please.
> 9.00

Tell me measured pIC50 for Cc1ccc(S(=O)(=O)Nc2ccccc2Nc2nc(Cl)ncc2F)cc1 please.
8.52

Tell me measured pIC50 for COc1cc(N(C)CCN(C)C)c(N)cc1Nc1ncc(Cl)c(Nc2ccccc2NS(C)(=O)=O)n1 please.
8.70

***
Tell me measured pIC50 for C=CC(=O)Nc1cc(N)c(OC)cc1N1CCC(N(C)C)CC1 please.
> 9.00

Tell me measured pIC50 for CC(C)N(c1ccccc1Nc1nc(Cl)ncc1Cl)S(C)(=O)=O please.
> 9.00

Tell me measured pIC50 for O=S1(=O)CCCN1c1ccccc1Nc1nc(Cl)ncc1Cl please.
> 9.00

Tell me measured pIC50 for CCc1cccc(Nc2nc(Cl)ncc2Cl)c1N(C)S(C)(=O)=O please.
> 9.00

Tell me measured pIC50 for Cc1ccc(Nc2nc(Cl)ncc2Cl)c(N(C)S(C)(=O)=O)c1 please.
> 9.00

Tell me measured pIC50 for C=C(F)C(=O)Nc1cc(N)c(OC)cc1N(C)CCN(C)C please.
> 9.00
